Data credit: the Human Domainome abundance scans (Beltran et al. 2025)

B1: Intersectin-1, residues 1156 to 1213; numbered along this chain, Q15811 (parent)
chain: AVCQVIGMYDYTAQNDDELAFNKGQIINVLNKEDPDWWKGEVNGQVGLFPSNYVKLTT

# Variants of: B1
# METHOD_SUMMARY: abundance fitness (aPCA) (normalised: wild type 0, dead -1); higher = more abundant; growth selection in yeast, the domain comes from the species named
# CONDITION_LABEL: Homo sapiens
Mark Met for reported abundance fitness of -0.4 or greater; mark Not met for anything smaller.

- MUTATION_ANNOTATION: "D10V"
  CLASS_ASSIGNMENT: "Not met"
- MUTATION_ANNOTATION: "A20W"
  CLASS_ASSIGNMENT: "Not met"
- MUTATION_ANNOTATION: "Y9L"
  CLASS_ASSIGNMENT: "Met"
- MUTATION_ANNOTATION: "A13P"
  CLASS_ASSIGNMENT: "Met"
- MUTATION_ANNOTATION: "V42T"
  CLASS_ASSIGNMENT: "Met"
- MUTATION_ANNOTATION: "W37D"
  CLASS_ASSIGNMENT: "Not met"
- MUTATION_ANNOTATION: "L48K"
  CLASS_ASSIGNMENT: "Met"
- MUTATION_ANNOTATION: "N22Y"
  CLASS_ASSIGNMENT: "Not met"
- MUTATION_ANNOTATION: "V5P"
  CLASS_ASSIGNMENT: "Not met"
- MUTATION_ANNOTATION: "K32H"
  CLASS_ASSIGNMENT: "Not met"
- MUTATION_ANNOTATION: "T12K"
  CLASS_ASSIGNMENT: "Met"
- MUTATION_ANNOTATION: "A20F"
  CLASS_ASSIGNMENT: "Not met"
- MUTATION_ANNOTATION: "L48S"
  CLASS_ASSIGNMENT: "Met"
- MUTATION_ANNOTATION: "F21S"
  CLASS_ASSIGNMENT: "Not met"
- MUTATION_ANNOTATION: "F21R"
  CLASS_ASSIGNMENT: "Not met"
- MUTATION_ANNOTATION: "L19Q"
  CLASS_ASSIGNMENT: "Not met"
- MUTATION_ANNOTATION: "V54S"
  CLASS_ASSIGNMENT: "Not met"
- MUTATION_ANNOTATION: "I27T"
  CLASS_ASSIGNMENT: "Not met"
- MUTATION_ANNOTATION: "F49T"
  CLASS_ASSIGNMENT: "Not met"
- MUTATION_ANNOTATION: "S51T"
  CLASS_ASSIGNMENT: "Met"
- MUTATION_ANNOTATION: "E18M"
  CLASS_ASSIGNMENT: "Not met"
- MUTATION_ANNOTATION: "C3N"
  CLASS_ASSIGNMENT: "Met"
- MUTATION_ANNOTATION: "W38N"
  CLASS_ASSIGNMENT: "Not met"
- MUTATION_ANNOTATION: "K55M"
  CLASS_ASSIGNMENT: "Met"
- MUTATION_ANNOTATION: "E33A"
  CLASS_ASSIGNMENT: "Met"
- MUTATION_ANNOTATION: "F49I"
  CLASS_ASSIGNMENT: "Met"
- MUTATION_ANNOTATION: "T57S"
  CLASS_ASSIGNMENT: "Met"
- MUTATION_ANNOTATION: "V2F"
  CLASS_ASSIGNMENT: "Met"
- MUTATION_ANNOTATION: "V29K"
  CLASS_ASSIGNMENT: "Not met"
- MUTATION_ANNOTATION: "N15G"
  CLASS_ASSIGNMENT: "Met"
- MUTATION_ANNOTATION: "V5H"
  CLASS_ASSIGNMENT: "Not met"
- MUTATION_ANNOTATION: "M8T"
  CLASS_ASSIGNMENT: "Met"
